// provenance: patent US20240358755A1

Give peptide exchange yield for every item shown.
- ASSAYED TARGET: T1, HLA-A*03:01 (human)
- T1 construct: Peptide-receptive MHC class I monomer in the UV-ligand exchange assay
- TEST METHOD NOTES: UV peptide exchange, anti-b2m ELISA; exchange yield grade

AILLPQLPK = ≥ 75%
LIYIPTNSIYK = ≥ 75%

// batch mode: one peptide exchange yield value per listed entry
1. LALLGAPPPK
2. GTFIAPVMK
3. LLFKGLMWK
4. AVLGALLRH
5. ILQLITVNR
6. AVFLGNPSNQK

20 to 50%
≥ 75%
≥ 75%
≥ 75%
50 to 75%
≥ 75%
